testSystem: RecQ-like DNA helicase BLM (Homo sapiens) (UniProt P54132)
Sequence (P54132 whole entry, looked up): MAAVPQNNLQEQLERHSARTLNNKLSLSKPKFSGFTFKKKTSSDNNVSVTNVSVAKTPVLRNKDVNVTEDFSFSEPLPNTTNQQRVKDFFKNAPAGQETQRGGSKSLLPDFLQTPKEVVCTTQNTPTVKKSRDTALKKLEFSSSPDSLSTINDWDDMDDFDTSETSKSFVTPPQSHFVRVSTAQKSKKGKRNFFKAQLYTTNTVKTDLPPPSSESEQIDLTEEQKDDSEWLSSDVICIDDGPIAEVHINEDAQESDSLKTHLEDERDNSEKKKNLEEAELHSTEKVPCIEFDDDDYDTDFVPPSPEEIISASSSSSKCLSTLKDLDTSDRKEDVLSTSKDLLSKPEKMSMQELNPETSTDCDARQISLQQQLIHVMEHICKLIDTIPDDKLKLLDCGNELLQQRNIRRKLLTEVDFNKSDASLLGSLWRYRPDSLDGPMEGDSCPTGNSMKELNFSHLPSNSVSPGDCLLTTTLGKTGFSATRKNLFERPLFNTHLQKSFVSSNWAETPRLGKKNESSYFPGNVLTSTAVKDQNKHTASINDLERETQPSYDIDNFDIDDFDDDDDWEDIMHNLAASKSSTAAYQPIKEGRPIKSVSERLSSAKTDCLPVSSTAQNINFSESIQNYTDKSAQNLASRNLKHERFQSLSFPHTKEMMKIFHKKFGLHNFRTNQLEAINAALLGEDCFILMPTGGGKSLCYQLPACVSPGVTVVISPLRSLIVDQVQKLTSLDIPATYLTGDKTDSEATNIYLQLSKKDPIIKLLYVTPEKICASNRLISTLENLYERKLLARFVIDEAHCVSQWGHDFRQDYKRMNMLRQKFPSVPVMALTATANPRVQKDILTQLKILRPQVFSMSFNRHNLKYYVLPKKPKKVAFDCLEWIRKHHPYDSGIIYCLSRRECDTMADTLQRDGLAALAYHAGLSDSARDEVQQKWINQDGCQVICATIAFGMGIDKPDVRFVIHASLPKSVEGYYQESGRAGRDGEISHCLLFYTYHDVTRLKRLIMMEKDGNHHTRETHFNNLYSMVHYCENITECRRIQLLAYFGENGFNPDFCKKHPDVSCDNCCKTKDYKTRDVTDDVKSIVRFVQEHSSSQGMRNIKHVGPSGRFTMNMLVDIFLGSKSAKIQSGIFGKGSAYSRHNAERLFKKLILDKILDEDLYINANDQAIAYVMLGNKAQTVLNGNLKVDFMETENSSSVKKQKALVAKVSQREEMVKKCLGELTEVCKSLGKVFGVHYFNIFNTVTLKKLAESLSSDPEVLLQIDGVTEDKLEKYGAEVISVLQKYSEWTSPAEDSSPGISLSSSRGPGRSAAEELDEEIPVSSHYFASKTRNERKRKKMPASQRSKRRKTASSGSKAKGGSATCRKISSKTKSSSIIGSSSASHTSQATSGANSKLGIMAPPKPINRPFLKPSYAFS
test: qHTS for Inhibitors of Bloom's syndrome helicase (BLM): Helicase DNA unwinding fluorescent orthogonal confirmatory assay for SAR
testConditions: fluorescence, orthogonal confirmation; series mostly up to 55.6 µM
Records with an inconclusive call do not appear. Calls of active or inactive are those of the source. The call rests on the fitted dose curve; in most records, active means well fitted inhibition curve with a large enough effect; inconclusive means small, poorly fitted or top-dose-only effect; inactive means no such curve, though single readings can be large or run the other way.
Labels: true (1) (active), false (0) (inactive)

smilesRepr	cat
O=C(Nc1ccc(Cl)c(Cl)c1)Nc1nnc(N2CCNCC2)s1	false (0)
CC(C)(C)c1ccc(-c2nnc(NC(=O)Nc3ccc4ccccc4c3)s2)cc1	false (0)
O=c1c(Nc2ccc(Cl)c(Cl)c2)c(Nc2nnc(-c3ccncc3)s2)c1=O	true (1)
O=C(Nc1nnc(-c2ccncc2)s1)Nc1ccc(Cl)cc1F	true (1)
O=C(Nc1ccc2ccccc2c1)Nc1nnc(-c2ccccc2Cl)s1	false (0)
O=C(Nc1ccc(-c2nc3ccccc3[nH]2)cc1)Nc1ccc2c(c1)OCCO2	false (0)
O=C(Nc1ccc(-c2cn[nH]c2)cc1)Nc1nnc(-c2ccncc2)s1	true (1)
O=C(Nc1ccc(Cl)c(Cl)c1)Nc1nnc(-c2ccncc2)s1	true (1)
COc1ccc(NC(=O)Nc2ccc(-c3nc4ccccc4[nH]3)cc2)cc1OC	false (0)
O=C(Nc1nnc(-c2ccncc2)s1)Nc1ccc(Cl)cc1Cl	true (1)
Cc1cc(NC(=O)Nc2nnc(-c3cccnc3)s2)ccc1F	true (1)

Reference source: PubChem BioAssay AID720555
